- EXPERIMENTAL_SYSTEM: Nuclear respiratory factor 1 (Homo sapiens) (UniProt Q16656)
- Sequence (Q16656 whole entry, looked up): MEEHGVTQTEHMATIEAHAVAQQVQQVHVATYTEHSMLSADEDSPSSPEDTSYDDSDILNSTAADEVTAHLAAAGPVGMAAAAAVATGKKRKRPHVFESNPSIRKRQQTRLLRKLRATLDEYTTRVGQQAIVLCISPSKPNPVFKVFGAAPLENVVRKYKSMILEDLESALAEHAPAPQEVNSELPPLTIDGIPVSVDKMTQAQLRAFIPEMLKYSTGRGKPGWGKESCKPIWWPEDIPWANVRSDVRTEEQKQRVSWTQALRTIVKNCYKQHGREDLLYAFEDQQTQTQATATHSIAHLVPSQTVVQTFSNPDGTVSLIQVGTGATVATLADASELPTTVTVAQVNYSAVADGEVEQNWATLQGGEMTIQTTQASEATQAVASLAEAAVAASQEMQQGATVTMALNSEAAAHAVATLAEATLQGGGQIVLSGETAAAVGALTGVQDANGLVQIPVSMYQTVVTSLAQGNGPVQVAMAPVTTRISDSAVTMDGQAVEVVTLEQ
- METHOD: ATG_NRF1_CIS: Attagene CIS-FACTORIAL HepG2 Assay for human Nuclear Respiratory Factor 1 (NRF1) Orphan Gene (AID 2282987)
- APPLIED_CONDITIONS: HepG2 NRF1 cis-element reporter, Attagene multiplex; actives raise or lower the signal
Activity calls are given as the source filed them. How the source made its calls: active means hit-call score of the fitted dose curve at least 0.9, where 1 is the maximum; inactive means score below 0.9.
One label from this list, please: 1.0 for active, 0.0 for inactive

Example results:
>>> label("Clc1ccc(C(c2ccccc2Cl)C(Cl)Cl)cc1 (configuration not stated)")
1.0
>>> label("CC(=O)OCCCc1ccccc1")
0.0
>>> label("CN(C)C(=O)Nc1ccc(Oc2ccc(Cl)cc2)cc1")
0.0
>>> label("CN(C)CCOc1ccc(/C(=C(/CCCl)c2ccccc2)c2ccccc2)cc1")
0.0
>>> label("CCCCCC(=O)CC")
0.0

Ask: Lab log entry: `C[C@H](CCC(=O)NCC(=O)O)[C@H]1CC[C@H]2[C@@H]3[C@H](O)C[C@@H]4C[C@H](O)CC[C@]4(C)[C@H]3C[C@H](O)[C@]12C` — outcome as called in the assay?
Result: 0.0

Ask: `CCN(CCC#N)c1ccc(N=Nc2ccc([N+](=O)[O-])cc2)cc1` ?
Result: 0.0

Ask: Now the compound CC(=O)C(C)O (configuration not stated)
Result: 0.0

Ask: Next up: `CCNCCO`
Result: 0.0

----------
- Read-out: CD40, CD40 (gene 958)
- METHOD: BSK_SAg_CD40: BioMAP Diversity Plus: SAg Assay for CD40 Biomarker Activity (AID 2283088)
- APPLIED_CONDITIONS: primary human HUVEC with PBMC; actives raise or lower the signal
Activity calls are given as the source filed them. How the source made its calls: active means hit-call score of the fitted dose curve at least 0.9, where 1 is the maximum; inactive means score below 0.9.
Answer with one of the outcomes 1 (yes) (active), 0 (no) (inactive)

Recorded results for 5 compounds are shown here.
>>> label("c1ccc2cc(Nc3ccc(Nc4ccc5ccccc5c4)cc3)ccc2c1")
"0 (no)"
>>> label("CCCCCC(C=O)=Cc1ccccc1")
"0 (no)"
>>> label("CC(C)(N=C=O)c1cccc(C(C)(C)N=C=O)c1")
"0 (no)"
>>> label("CC(CN=Cc1ccccc1O)N=Cc1ccccc1O (stereo not drawn)")
"0 (no)"
>>> label("Oc1c(Cl)cc(Cl)c(Cl)c1Cc1c(O)c(Cl)cc(Cl)c1Cl")
"1 (yes)"

Ask: For CCCCCCC(CO)CCCC (stereo not drawn) , what call appears in the results of this test?
Result: 0 (no)

Ask: Okay, and `O=C1OC[C@H](Cc2cccc(O)c2)[C@H]1Cc1cccc(O)c1` ?
Result: 0 (no)

Ask: Proceed to `CN(C)C(=O)Nc1ccc(Oc2ccc(Cl)cc2)cc1`
Result: 0 (no)

Ask: Subsequent entry: `COc1ccc(OC)c(N=Nc2c(O)ccc3ccccc23)c1`
Result: 1 (yes)

Ask: Would you mind doing `CC=Cc1ccc(OCC)c(O)c1` as well?
Result: 0 (no)

----------
- EXPERIMENTAL_SYSTEM: PGR (gene 5241) (UniProt P06401)
- Sequence (P06401 whole entry, looked up): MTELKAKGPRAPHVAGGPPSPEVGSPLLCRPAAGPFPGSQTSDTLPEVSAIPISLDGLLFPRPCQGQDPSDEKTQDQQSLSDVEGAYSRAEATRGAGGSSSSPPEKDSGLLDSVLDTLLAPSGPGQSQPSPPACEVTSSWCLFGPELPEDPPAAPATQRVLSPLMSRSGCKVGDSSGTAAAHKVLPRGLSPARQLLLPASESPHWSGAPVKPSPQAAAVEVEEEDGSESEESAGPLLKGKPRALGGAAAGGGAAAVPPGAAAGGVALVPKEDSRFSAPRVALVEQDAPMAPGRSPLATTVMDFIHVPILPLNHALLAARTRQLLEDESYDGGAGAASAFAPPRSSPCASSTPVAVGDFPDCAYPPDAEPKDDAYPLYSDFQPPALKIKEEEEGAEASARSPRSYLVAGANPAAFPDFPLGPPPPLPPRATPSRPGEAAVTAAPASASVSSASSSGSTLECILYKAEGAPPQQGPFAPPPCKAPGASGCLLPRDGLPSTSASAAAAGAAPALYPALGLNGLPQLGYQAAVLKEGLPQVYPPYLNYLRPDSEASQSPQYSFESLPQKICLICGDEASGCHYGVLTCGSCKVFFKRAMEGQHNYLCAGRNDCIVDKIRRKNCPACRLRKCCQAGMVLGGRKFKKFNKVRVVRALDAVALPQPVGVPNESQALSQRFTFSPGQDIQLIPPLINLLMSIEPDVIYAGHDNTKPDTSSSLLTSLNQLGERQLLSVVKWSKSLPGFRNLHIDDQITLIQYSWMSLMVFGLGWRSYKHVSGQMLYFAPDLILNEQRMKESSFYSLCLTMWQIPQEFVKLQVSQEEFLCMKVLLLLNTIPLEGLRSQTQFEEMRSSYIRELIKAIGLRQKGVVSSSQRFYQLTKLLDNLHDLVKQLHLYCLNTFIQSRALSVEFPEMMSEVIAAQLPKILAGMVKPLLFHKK
- METHOD: TOX21_PR_BLA_Followup_Antagonist_ratio: Tox21 HEK293 Progesterone Receptor (PR) Antagonism Beta-lactamase Follow-Up Assay, Ratio (AID 2283934);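 further: PR-UAS-bla HEK293T cells stimulated with 1 nM R5020 agonist for 16 hr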
Calls of active or inactive are those of the source. The calls were made as follows: active = hit-call score of the fitted dose curve at least 0.9, where 1 is the maximum; inconclusive = response in the unintended direction; inactive = score below 0.9.
Respond with a class label; see active, inactive

>>> label("N#Cc1ccc(CC(=O)c2cccc(C(F)(F)F)c2)cc1")
"active"
>>> label("CCOC(=O)C(C#N)=C(c1ccccc1)c1ccccc1")
"active"
>>> label("Clc1ccc(C(c2ccccc2Cl)C(Cl)Cl)cc1 (stereo unspecified)")
"active"
>>> label("O=c1c(O)c(-c2ccc(O)cc2)oc2cc(O)cc(O)c12")
"active"

Ask: Any idea what this test logged for `C=C1CC[C@H](O)C/C1=C/C=C1\CCC[C@]2(C)[C@@H]([C@H](C)/C=C/[C@H](C)C(C)C)CC[C@@H]12` ?
Result: inactive

Ask: What about this compound? `O=C(Nc1ccc2c(c1)Cc1ccccc1-2)C(F)(F)F`
Result: active
